System: Colon cancer organoid
Protocol details: Identification of compartment-specific drug sensitivities in O06 CRC organoid-stroma F06 CAF co-cultures. Organoid is transduced with Lucferase2-P2A-EGFP lentivirus, fibroblast with Renilla-dsRed lentivirus. Dual-Glo Luciferase assay is used to report viability data.
Format: functional, Homo sapiens
Parameters: dose or concentration left out as unconfirmed
Measurement setup: Transduced with Renilla-dsRed lentivirus
molecules and their reported Cell Viability
# do not omit the unit; it follows the number

Worked cases, Cell Viability given:
| Molecule | Test readout | Experimental value |
| --- | --- | --- |
| CO[C@H]1CC[C@H](CNc2ccc(S(=O)(=O)NC(=O)c3ccc(N4CCN(CC5=C(c6ccc(Cl)cc6)CC(C)(C)CC5)CC4)cc3Oc3cnc4[nH]ccc4c3)cc2[N+](=O)[O-])CC1 [A-1211212] | Cell Viability | 108.861% |
| CN(C)CCOc1ccc(-c2nc(-c3ccncc3)c(-c3ccc4c(c3)CC/C4=N\O)[nH]2)cc1 [SB590885] | Cell Viability | 96.48% |
| Clc1cccc(-c2nnnn2Cc2cccnc2)c1Cl | Cell Viability | 281.873% |
| CCS(=O)(=O)c1cc2cc(C[C@](O)(CC(C)(C)c3ccc(F)cc3C(N)=O)C(F)(F)F)[nH]c2cn1 [BI 653048] | Cell Viability | 199.02% |
| C[C@]1(O)C[C@@H](c2nc(-c3ccc4ccc(-c5ccccc5)nc4c3)c3c(N)nccn32)C1 [LINSITINIB] | Cell Viability | 100.619% |
| CNC(=O)c1cc(C(=O)N[C@H]2[C@@H]3COC[C@@H]32)cc2c1O[C@@H](CF)[C@@H]2c1ccccc1 [GSK943] | Cell Viability | 130.888% |
| Cc1ccc(C(=O)Nc2cccc(C(F)(F)F)c2)cc1Nc1nc(-c2cccnc2)nc2c1cnn2C | Cell Viability | 70.9034% |
| O=C(NCC(=O)N1CCCC1)Nc1ccc2cnccc2c1 | Cell Viability | 124.064% |
| CCOC(=O)CCNc1cc(N2CCc3ccccc3CC2)nc(-c2ccccn2)n1 | Cell Viability | 116.98% |
| COc1cc(-c2cn(C)c(=O)c3cnccc23)c(OC)cc1CN(C)C | Cell Viability | 108.934% |

# value of Cell Viability, Colon cancer organoid, item COc1ccc(CCc2nc3cc(-c4c(C)noc4C)ccc3n2C[C@H](C)N2CCOCC2)cc1Cl = 97.126%

# value of Cell Viability, Colon cancer organoid, item CC(C)(C)OC(=O)N1CCCC1CNC1CCC(c2cc(F)ccc2F)(S(=O)(=O)c2ccc(Cl)cc2)CC1 (centres undefined) [GSI-NC] = 78.4593%

# value of Cell Viability, Colon cancer organoid, item CCn1cc(-c2ccnc3[nH]c(-c4cccc(CN(C)C)c4)cc23)c(-c2ccc(NC(=O)N(C)C)cc2)n1 [GSK-1070916] = 116.692%

# value of Cell Viability, Colon cancer organoid, item CCOc1cc(N2CCC(O)CC2)ccc1Nc1ncc2c(n1)N(C)c1ccccc1C(=O)N2C = 128.987%

# value of Cell Viability, Colon cancer organoid, item Nc1nc(NCc2ccccc2)nc(-c2cccc(CO)c2)n1 [ZINC32547799] = 116.001%

# value of Cell Viability, Colon cancer organoid, item CC(C)NC(=O)N1CC[C@H](NC2=Nc3cc(F)ccc3N(CC(F)F)c3ccc(Cl)cc32)C1 = 97.5535%

# value of Cell Viability, Colon cancer organoid, item CCOc1cc(N2CCC(O)CC2)ccc1Nc1ncc2c(n1)N(C1CCCC1)CCC(=O)N2C = 151.464%

# value of Cell Viability, Colon cancer organoid, item Cc1noc([C@H]2C[C@@H](c3ccc(C(F)(F)F)cc3)CN(C(=O)N3CCS(=O)(=O)C3)C2)n1 [BAY-448] = 114.596%

# value of Cell Viability, Colon cancer organoid, item N#CN1CC[C@H](C(=O)Nc2nc3c(s2)CN(C(=O)CN=[N+]=[N-])CC3)C1 [8RK64] = 104.354%

# value of Cell Viability, Colon cancer organoid, item O=C1[C@H](Cc2ccc(O)cc2)N2C(=O)CCN(C(=O)NCc3ccccc3)[C@H]2CN1Cc1cccc2ccccc12 = 124.216%
